- Test system: MDA-MB-468 breast
- test_name: NCI-60 one-dose screen, 48 h
- assay_conditions: 10 µM unless noted
About 83,000 compounds went through this panel and 20% of them were active in at least one assay; those are over-represented in the sample as a whole. Active and inactive are the calls of the source. How the source made its calls: active means growth percent below 10; inactive means the rest.
Form entry, call: pick from active, inactive

Some solved cases for reference:
{"columns": ["chemical_structure", "experimental_target", "assigned_category"],
 "data": [
  ["COC(=O)CCCNS(=O)(=O)c1cc(C(=O)Nc2ccc(NC(=O)c3cc(S(=O)(=O)NCCCC(=O)OC)c(O)c(O)c3O)cc2)c(O)c(O)c1O", "MDA-MB-468 breast", "inactive"],
  ["C=C(C)[C@@H]1CC[C@]2(C(=O)N3CCN(C)CC3)CC[C@]3(C)[C@H](CC[C@@H]4[C@@]5(C)CC[C@H](O)C(C)(C)[C@@H]5CC[C@]43C)[C@@H]12", "MDA-MB-468 breast", "active"],
  ["O=C(CCN1C(=O)c2ccccc2C1=O)Nc1ccc(Cl)cc1", "MDA-MB-468 breast", "inactive"]
]}

Name the outcome recorded for O=C(NNc1ccc(-c2ccccc2)nn1)c1ccc(F)cc1 in the assay.
inactive

----------
- System: MDA-MB-468 breast
- test_name: NCI-60 one-dose screen, 48 h
- assay_conditions: 10 µM unless noted
About 83,000 compounds went through this panel and 20% of them were active in at least one assay; those are over-represented in the sample as a whole. The source made the active and inactive calls. The calls were made as follows: active = growth percent below 10; inactive = the rest.
Your response should consist of one outcome taken from active, inactive

Solved cases below.
{"columns": ["molecule", "assigned_category"],
 "data": [
  ["FC(F)(F)c1ccc(-c2cnc(Cl)nc2N2CCC3(CC2)OCCO3)cc1", "inactive"],
  ["O=C1/C(=C/c2ccc([N+](=O)[O-])s2)Oc2cc(Cl)ccc21", "active"],
  ["COc1ccc(/C(=C\\c2ccc3c(c2)OCO3)C(=O)Nc2nc3ccc(F)cc3s2)cc1OC", "inactive"],
  ["CCCCCCN1CSC(=S)N(CCCCCC)C1", "inactive"],
  ["COc1ccc(/C=N\\NC(=O)c2ccc3nc(-c4ccc(Br)cc4)[nH]c3c2)cc1", "inactive"],
  ["Nc1nc(Cl)nc2c1ncn2C1O[C@H](CO)[C@@H](O)[C@@H]1F (some centres not stated)", "active"],
  ["CN1CCN(CCCn2c3c(sc4ncccc43)c(=O)n3nnc(-c4ccccc4)c23)CC1", "inactive"],
  ["C#CCOc1ccc2ncnc(N3CCN(C(=O)CCl)CC3)c2c1", "active"]
]}

Dear all, I need the recorded test outcome for O=C(Nc1cc(C(F)(F)F)cc(C(F)(F)F)c1)Nc1ccc2oc(=O)ccc2c1 , thank you.
active

Dear all, I need the recorded test outcome for O=C1N[C@H]2[C@H](CS[C@H]2CCCCC(=O)N(CCP(c2ccccc2)c2ccccc2)CCP(c2ccccc2)c2ccccc2)N1 , thank you.
inactive

Lab log entry: O=C1c2cccc3cccc(c23)C(=O)N1C/C=C/c1ccc2c3c(cccc13)C(=O)N(CCO)C2=O — outcome as called in the assay?
inactive

Query: recorded result category for COC(=O)[C@]12CC[C@@H](C)[C@H](C)[C@@H]1C1=CC[C@@H]3[C@@]4(C)C(C=O)=C[C@@](C)(CO)C4=CC[C@@]3(C)[C@]1(C)CC2 in this test
inactive

Short answer needed: outcome of this test for COC(=O)c1cccc([N+](=O)[O-])c1 ?
inactive

Dear colleague, could you share the recorded outcome for COc1ccc(/C=C(\C#N)n2nnc3ccccc32)cc1 when you have a moment?
active

For O=C(CN1CCOCC1)Nc1ccc(Cn2nnc3c2C(=O)c2nnn(Cc4ccc(NC(=O)CN5CCOCC5)cc4)c2C3=O)cc1 , which call appears in the assay record?
active

For this molecule, state the assay outcome: C=CCOC(=O)C1=C(C)NC2=C(C(=O)CC(C)(C)C2)C1c1ccc(OC)cc1 (configuration not stated)
inactive

Recorded call for Nc1nc(=S)c2[nH]cnc2[nH]1 ?
active

# outcome recorded in this test, key = C[C@@H]1C[C@H]2C(=O)O[C@@H](C)[C@H](NC(=O)[C@H](Cc3cc(F)cc(F)c3)NC(=O)Nc3ccc(C4CC4)cc3F)C(=O)N3CCC[C@H]3C(=O)N3CCCC[C@H]3C(=O)N[C@@H](C)C(=O)N2C1
active

For this molecule, state the assay outcome: O=S(=O)(O)c1cccc(Nc2ccc3ccccc3c2)c1
inactive

GET /call?item= Brc1ccc(Cn2nnnc2-c2ccn(-c3ccccc3)n2)cc1 returns the recorded outcome of this test.
inactive

// return assay outcome for COC(=O)c1c(C)nc(C)c2c1C(=O)C(Br)=C(NCCCCO)C2=O
inactive

Test call for this molecule, please: O=C(Nc1cccc(-c2cccc(F)c2)c1)C1CCN(Cc2cccc3cccnc23)CC1
inactive

----------
- Tested on: MDA-MB-468 breast
- test_name: NCI-60 one-dose screen, 48 h (100 = growth as untreated, 0 = no growth, -100 = all killed)
- assay_conditions: 10 µM unless noted
Compounds without any hit were thinned out: in the full panel of roughly 83,000, 20% have a hit.
Labelling: growth reported below 90% becomes y; at or above becomes n.

// known answers, use as guide
{"columns": ["chemical_structure", "assigned_category"],
 "data": [
  ["CCCCCCCCCCCCCCCCOc1ccc(S(=O)(=O)N(C)C)cc1[N+](=O)[O-]", "y"],
  ["COc1cc(C(=O)/C=C/c2c(C)n([O-])c3ccc(C)cc3[n+]2=O)cc(OC)c1OC", "y"],
  ["O=C(O)COc1ccccc1F", "n"],
  ["O=C(/C=C/c1ccc(Cl)cc1)c1ccc(NC(=O)N2CCN(c3cc4c(cc3F)c(=O)c(C(=O)O)cn4C3CC3)CC2)cc1", "n"]
]}

Dear reviewer, please state whether c1ccc(-c2ccc3c(c2)C2(CCNCC2)CN3)cc1 has growth strictly beneath 90%.
n

----------
- Tested on: MDA-MB-231 breast
- test_name: NCI-60 one-dose screen, 48 h (100 = growth as untreated, 0 = no growth, -100 = all killed)
- assay_conditions: 10 µM
About 83,000 compounds went through this panel and 20% of them were active in at least one assay; those are over-represented in the sample as a whole.
Below: a set of entries, each annotated with reported growth.
Give the value, in units of %, as a plain number.

{"columns": ["molecule", "experimental_target", "experimental_value"],
 "data": [
  ["COc1cc(C2CC(c3ccccc3)=Nc3c(N)nc(N)nc3N2)ccc1Oc1nc(NCCO)nc(N2CCOCC2)n1 (stereo not given)", "MDA-MB-231 breast", 97.1],
  ["COc1ccc(C2c3sc4ccc(C)cc4c3Oc3nc(N)nc(N)c32)cc1 (stereo not given)", "MDA-MB-231 breast", 89.3],
  ["COc1cc(Nc2nc(O)c(/C=C3\\C=Nc4ccccc43)s2)cc(OC)c1OC", "MDA-MB-231 breast", -40.7],
  ["Cc1ccc(-c2nc(C#N)c(S(=O)(=O)N3CCN(S(C)(=O)=O)CC3)o2)cc1", "MDA-MB-231 breast", 77.6]
]}

The record that follows has no growth shown yet.
Report growth for CCn1c(SCC(=O)Nc2ccc(-c3nc4ccccc4[nH]3)cc2)nc2ccccc2c1=O
-71.1

----------
- System: MDA-MB-468 breast
- test_name: NCI-60 one-dose screen, 48 h
- assay_conditions: 10 µM unless noted
Compounds without any hit were thinned out: in the full panel of roughly 83,000, 20% have a hit. The source made the active and inactive calls. How the source made its calls: active means growth percent below 10; inactive means the rest.
Thanks in advance; please answer with one of these: YES for active, NO for inactive

Before answering, review these 5 worked examples.
{"columns": ["molecule", "assigned_category"],
 "data": [
  ["Cn1c(SCC(=O)c2ccc(F)cc2)nc2ccccc2c1=O", "NO"],
  ["O=C1C=CC2(NN=C(c3ccccc3)N2c2cccc(Cl)c2)c2cccc(O)c21 (centres undefined)", "NO"],
  ["CCCCCCCC/C=C\\CCCCCCCC(=O)OCCCCCC", "NO"],
  ["COc1cc(CNCCCCCCN2C(=O)c3cccc4cccc(c34)C2=O)ccc1O", "NO"],
  ["Cc1ccc(NC(=O)N[C@@H](Cc2cc(F)cc(F)c2)C(=O)NC2C(=O)N3C[C@H](O)C[C@H]3C(=O)N3CCCC[C@H]3C(=O)N[C@@H](CO)C(=O)N3C[C@H](C)C[C@H]3C(=O)O[C@H]2C)c(F)c1 (some centres undefined)", "YES"]
]}

Outcome? IC(I)I
NO

Status in this test for CN1CCN(Cc2ccc(NC(=O)c3cncc(C#Cc4cnc5ccc(NCCCO)nn45)c3)cc2C(F)(F)F)CC1 ?
YES

Which result was noted for this molecule in the test: CC(C)CC(NC(=O)CN(Cc1ccccc1)S(C)(=O)=O)C(=O)O (centres undefined)
NO

In this assay, the call recorded for CCOC(=O)C(Cc1ccccc1)(C(=O)OCC)C(Br)C(=O)c1ccccc1 (centres undefined) was what?
YES

Check the results log: what was the call for O=C(NNc1nc(Cl)nc(N2CCN(C(c3ccccc3)c3ccccc3)CC2)n1)c1ccccc1 ?
YES

I would be grateful if you could indicate the recorded call for CCSc1nnc2c3cc(Br)ccc3n(C)c2n1 .
NO

Hey, what did the test say about C[C@]12CCc3nc(Nc4cccc(O)c4)sc3C1=CC[C@@H]1[C@@H]2CC[C@]2(C)/C(=N\NC(N)=S)CC[C@@H]12 ?
YES
